# System: Ovarian carcinoma patient tumor cells (PHTC)
# experimental.protocol: FMCA, patient tumor samples, ovarian carcinoma
# Assay type: cell-based, human
# test.settings: Homo sapiens, range over n=14 samples, read-out: IC50 Range
pIC50: −log10 of the molar value.
value.type: pIC50

Provide only the value of recorded pIC50 for COCCCNC(=S)N/N=C\c1ccccn1 4.40 to 6.59

====

# System: Assorted tumors: one appendix cancer and one pseudomyxomo peritonei
# experimental.protocol: FMCA, patient tumor samples, assorted tumors
# Assay type: cell-based
# test.settings: Homo sapiens, n=2, 72 h FMCA, read-out: Median IC50
value.type: IC50 (µM)
Give the value in µM but do not write µM after it.

Provide only the value of recorded IC50 for COCCCNC(=S)N/N=C\c1ccccn1 [VLX50] 7.8

====

# Tested on: CML (Chronic Myelocytic Leukemia) patient tumor cells
# experimental.protocol: FMCA, patient tumor samples, CML
# Assay type: cell-based
# test.settings: Homo sapiens, n=3, 72 h FMCA, read-out: Median IC50
value.type: IC50 (µM)
Give the value in µM but do not write µM after it.

Provide only the value of recorded IC50 for COCCCNC(=S)N/N=C\c1ccccn1 5.13

====

# System: CML (Chronic Myelocytic Leukemia) patient tumor cells
# experimental.protocol: FMCA, patient tumor samples, CML
# Type: cell-based
# test.settings: Homo sapiens, range over n=3 samples, read-out: IC50 Range
pIC50: −log10 of the molar value.
value.type: pIC50

Provide only the value of recorded pIC50 for COCCCNC(=S)N/N=C\c1ccccn1 5.19 to 5.68

====

# System: AML (Acute Myelocytic Leukemia) patient tumor cells
# experimental.protocol: FMCA, patient tumor samples, AML
# Type: cell-based
# test.settings: Homo sapiens, range over n=10 samples, read-out: IC50 Range
value.type: IC50

Provide only the value of recorded IC50 for COCCCNC(=S)N/N=C\c1ccccn1 [VLX50] 0.67 to 40 µM
